Just for reference, patent US20250313535A1 is where these values come from.

Measured pIC50, listed per entry.
- MEASUREMENT TARGET: α4β1 integrin (Homo sapiens (Human), UniProt P05556+P13612)
- Sequence (P13612 34-1032): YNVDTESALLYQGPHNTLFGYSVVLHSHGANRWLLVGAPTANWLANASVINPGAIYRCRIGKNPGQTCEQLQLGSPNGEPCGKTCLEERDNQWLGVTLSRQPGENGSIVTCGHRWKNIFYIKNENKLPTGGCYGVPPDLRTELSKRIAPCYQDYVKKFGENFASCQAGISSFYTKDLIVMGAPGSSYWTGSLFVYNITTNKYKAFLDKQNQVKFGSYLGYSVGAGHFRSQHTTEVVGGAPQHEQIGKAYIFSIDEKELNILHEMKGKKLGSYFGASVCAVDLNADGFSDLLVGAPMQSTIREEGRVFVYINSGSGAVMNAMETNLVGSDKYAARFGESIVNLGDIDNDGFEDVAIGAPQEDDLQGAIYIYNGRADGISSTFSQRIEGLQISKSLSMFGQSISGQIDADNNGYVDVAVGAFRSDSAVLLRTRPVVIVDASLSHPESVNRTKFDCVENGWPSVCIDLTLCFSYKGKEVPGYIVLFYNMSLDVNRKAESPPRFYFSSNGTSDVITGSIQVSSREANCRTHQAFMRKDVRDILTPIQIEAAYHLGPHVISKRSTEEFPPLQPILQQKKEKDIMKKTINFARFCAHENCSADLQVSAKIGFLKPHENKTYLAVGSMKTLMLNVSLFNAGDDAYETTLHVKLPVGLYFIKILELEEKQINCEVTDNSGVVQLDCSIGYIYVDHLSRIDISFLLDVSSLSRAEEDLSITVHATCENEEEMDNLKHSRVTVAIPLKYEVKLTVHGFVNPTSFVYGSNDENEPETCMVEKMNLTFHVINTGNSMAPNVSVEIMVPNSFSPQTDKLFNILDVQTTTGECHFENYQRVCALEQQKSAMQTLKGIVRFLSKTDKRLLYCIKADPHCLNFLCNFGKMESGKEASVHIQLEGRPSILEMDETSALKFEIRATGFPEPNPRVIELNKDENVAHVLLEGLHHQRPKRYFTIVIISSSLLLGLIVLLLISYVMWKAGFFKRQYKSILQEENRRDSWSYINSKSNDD
- Sequence (P05556 21-798): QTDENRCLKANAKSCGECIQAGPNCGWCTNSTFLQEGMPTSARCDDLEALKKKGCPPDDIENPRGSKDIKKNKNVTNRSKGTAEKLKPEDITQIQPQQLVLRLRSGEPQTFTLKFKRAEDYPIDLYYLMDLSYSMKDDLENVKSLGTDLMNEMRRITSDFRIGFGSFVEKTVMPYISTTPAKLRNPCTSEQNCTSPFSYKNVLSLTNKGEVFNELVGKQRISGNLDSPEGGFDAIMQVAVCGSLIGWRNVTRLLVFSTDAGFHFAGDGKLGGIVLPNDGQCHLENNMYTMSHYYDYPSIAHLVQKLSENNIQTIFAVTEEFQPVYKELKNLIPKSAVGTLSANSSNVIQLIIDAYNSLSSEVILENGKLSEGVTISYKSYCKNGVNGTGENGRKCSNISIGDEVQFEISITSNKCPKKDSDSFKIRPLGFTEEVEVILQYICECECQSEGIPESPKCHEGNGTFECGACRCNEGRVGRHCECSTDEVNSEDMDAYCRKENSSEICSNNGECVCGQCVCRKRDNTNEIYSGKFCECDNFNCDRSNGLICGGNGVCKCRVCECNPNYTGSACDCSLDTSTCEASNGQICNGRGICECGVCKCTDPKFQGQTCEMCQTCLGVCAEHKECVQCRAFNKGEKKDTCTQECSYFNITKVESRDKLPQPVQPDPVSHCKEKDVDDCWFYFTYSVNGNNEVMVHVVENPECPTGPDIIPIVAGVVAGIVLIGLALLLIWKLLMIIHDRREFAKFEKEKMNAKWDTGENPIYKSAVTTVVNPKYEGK
- PROTOCOL DESCRIPTION: Integrin Adhesion Assay: Protocol 5 (VCAM-coated plate, RPMI-8866 cells with stable LOF mutation of the ITGB7 gene)
- Type: cell-based
- EXPERIMENTAL CONTEXT: Protocol 5; RPMI-8866 cells with LOF mutation of ITGB7, VCAM; read-out: Mean IC50 α4β1 KO
pIC50: −log10 of the molar value.

Check out these entries, answers already filled in.
Query: Fill: pIC50 (α4β1 integrin (Homo sapiens (Human), UniProt P05556+P13612)) for this compound CC[C@H]1CCCCN1Cc1cnc(-c2cccc3c(C[C@H](NC(=O)C4(C(F)(F)F)CCN(CC(F)F)CC4)C(=O)O)cccc23)c2ccccc12 [Compound 930]
Reply: 6.00 to 7.00

Query: Look up α4β1 integrin (Homo sapiens (Human), UniProt P05556+P13612) data: pIC50 of O=C(O)[C@H](Cc1cccc2c(-c3ncc(CN4CCC4)c4ccccc34)cccc12)NC(=O)C1(C(F)(F)F)CCN(CC(F)(F)F)CC1 [Compound 919] , then report it.
Reply: < 6.00

Query: Write pIC50 of COc1cccc(CCN2CCC(F)(F)CC2)c1-c1cccc2c(C[C@H](NC(=O)c3c(C)cccc3F)C(=O)O)cccc12 [Compound 1034] ; system used: α4β1 integrin (Homo sapiens (Human), UniProt P05556+P13612)
Reply: < 6.00

Query: // output pIC50; input COc1cccc(CCN2CCCC(C)(C)C2)c1-c1cccc2c(C[C@H](NC(=O)C3(C(F)(F)F)CCN(CC(F)(F)F)CC3)C(=O)O)cccc12 [Compound 961] ; system α4β1 integrin (Homo sapiens (Human), UniProt P05556+P13612)
Reply: 6.00 to 7.00

---
Query: Enter pIC50 (test system α4β1 integrin (Homo sapiens (Human), UniProt P05556+P13612)) for O=C(O)[C@H](Cc1cccc2c(-c3ncc(CN4CC5(CC5)C4)c4ccccc34)cccc12)NC(=O)C1(C(F)(F)F)CCN(CC(F)F)CC1 [Compound 908]
Reply: 6.00 to 7.00

Query: Answer briefly: pIC50 recorded on α4β1 integrin (Homo sapiens (Human), UniProt P05556+P13612) for Cn1c(=O)c(-c2cccc3c(C[C@H](NC(=O)C4(C(F)(F)F)CCN(CC(F)(F)F)CC4)C(=O)O)cccc23)c(C(F)(F)F)c2cc(CN3CCC(F)(F)CC3)ccc21 [Compound 835]
Reply: 6.00 to 7.00
